# key: entry, value: IC50
EXPERIMENTAL_SYSTEM: GDP-bound KRAS protein (aa 1-169), G12D and C118A; SOS-mediated nucleotide exchange (Homo sapiens (Human), UniProt P01116, C118A/G12D)
Sequence (P01116 other isoform, or with tags, fused parts or gaps G12D/C118A): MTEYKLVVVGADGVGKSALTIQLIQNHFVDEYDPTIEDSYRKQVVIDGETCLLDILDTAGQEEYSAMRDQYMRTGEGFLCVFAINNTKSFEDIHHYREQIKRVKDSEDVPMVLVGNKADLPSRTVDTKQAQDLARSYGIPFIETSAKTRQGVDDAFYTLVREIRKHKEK
ASSAY_REMARKS: KRAS G12D Coupled Nucleotide Exchange Assay
Format: biochemical
CONDITION_SUMMARY: 2 h compound pre-incubation, GTP, cRAF AlphaScreen
Description: Purified GDP-bound KRAS protein (aa 1-169), containing both G12D and C118A amino acid substitutions and an N-terminal His-tag, was pre-incubated in assay buffer (25 mM HEPES pH 7.4, 10 mM MgCl2, and 0.01% Triton X-100) with a compound dose-response titration for 2 h. […] The assay plates were then read on a PerkinElmer En Vision Multilabel Reader, using AlphaScreen® technology, and data were analyzed using a 4-parameter logistic model to calculate IC50 values.
// note: answer is a bare numeric in nM

COMPOUND: CC1(O)CCCCN(c2nc(OC[C@@]34CCCN3C[C@H](F)C4)nc3c(F)c(-c4ccc(F)c5sc(N)c(C#N)c45)c(Cl)cc23)C1 (single isomer, unassigned) [Example 28]
OBSERVED_PROPERTY: IC50
QUANTITY_UNIT: nM
QUANTITATIVE_RESULT: 5

COMPOUND: CC1(O)COCCN(c2nc(OC[C@@]34CCCN3C[C@H](F)C4)nc3c(F)c(-c4ccc(F)c5sc(N)c(C#N)c45)c(Cl)cc23)C1 (single isomer, unassigned) [Example 23]
OBSERVED_PROPERTY: IC50
QUANTITY_UNIT: nM
QUANTITATIVE_RESULT: 42

Prompt line: So what's the measured IC50 for this one? N#Cc1c(N)sc2c(F)ccc(-c3c(Cl)cc4c(C5CC5)nc(OC[C@@]56CCCN5C[C@H](F)C6)nc4c3F)c12 [Example 71, bis(2,2,2-trifluoroacetate)]
Response line: 5

Prompt line: IC50 lookup needed for N#Cc1c(N)sc2c(F)ccc(-c3c(Cl)cc4c(N5CCC[C@@H](C#N)C5)nc(OC[C@@]56CCCN5C[C@H](F)C6)nc4c3F)c12 [Example 54] , thanks.
Response line: 13

Prompt line: Report IC50 for N#Cc1c(N)sc2c(F)ccc(-c3c(Cl)cc4c(N5CCCS(=O)(=O)CC5)nc(OC[C@@]56CCCN5C[C@H](F)C6)nc4c3F)c12 [Example 25] please.
Response line: 3
